Study Target: T1, CD27 expressed on the cell surface (HT1080_CD27 cells) (human, UniProt P26842 20-260); note: test concentration or dose not given here
T1 sequence (looked up): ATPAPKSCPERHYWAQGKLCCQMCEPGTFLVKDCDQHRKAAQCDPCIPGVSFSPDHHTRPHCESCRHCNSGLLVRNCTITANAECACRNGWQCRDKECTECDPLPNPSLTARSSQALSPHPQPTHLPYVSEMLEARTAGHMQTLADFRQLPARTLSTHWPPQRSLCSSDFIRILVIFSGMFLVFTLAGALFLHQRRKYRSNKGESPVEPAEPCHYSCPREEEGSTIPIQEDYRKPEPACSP
Test Details: cell-based or functional assay
Parameter IL-8 [abs. corr.]: see the listing below.
Your answer should be a plain number; it is taken to be in abs. corr..

Some entries whose results are on file:
- P018.S.09.A.H04 (antibody, V domains shown, V regions on human Ig constant parts; also called AB27_161) VH: QSVEESGGRLVTPGTPLTLTCTVSGFSLSSYVMSWVRQAPGKGLEWIGYSDYGGTAYYANWAKGRFTISKTSTTVELKITSPTIEDTATYFCARGGYDGYLLVTGLWGPGTLVTVSS VL: DIVMTQTPASVSEPVGGTVTIKCQASQSISSYLAWYQQKPGQPPKLLIYSASTLASGVSSRFKGSGSGTEYTLTISDLESADAATYYCQTYYGGGPFGNGFGGGTEVVVK: 0.274
- P018.S.09.A.D05 (antibody, V domains shown, V regions on human Ig constant parts; also called AB27_152) VH: QSLEESGGRLVTPGGSLTLTCTVSGIDLSSYAMDWVRQAPGKGLEWIGVIGAGGSTYYASWANGRFTISKTSTTVDLKISSPTTEDTATYFCARDIGGDYSSRYYFSLWGPGTLVTVSS VL: DIVMTQTPASVEAAVGGTVTIKCQASQSTSTALAWYQQKPGQRPKLLIYDSSKLASGVPSRFSGSGSGTEFTLTISGVQSDDAASYYCQQGYNINNVAFGGGTEVVVK: 0.187

Then this binder:
Item under review: P018.S.07.A.B04 (antibody, V domains shown, V regions on human Ig constant parts; also called AB27_116) VH: QSVEESGGRLVTPGTPLTLTCTVSGFSLSSYDMIWVRQAPGKGLEWIGIIYLTDTTYYANWTKGRFTISKTSTTVDLKISSPTTEDTATYFCARHLDTSSGGFYFNLWGQGTLVTVSS VL: AQVLTQTPSSVSAAVGGTVTINCQASQSVYNSKILAWYQQKPGRPPKLLIYDASTLASGVPSRFKGSGSGTQFTLTISGVQSDDAATYFCQGEFTCTSADCIAFGGGTEVVVK . Reported IL-8 [abs. corr.]?
0.304
